- tested on: Amine oxidase [flavin-containing] B (Rattus norvegicus, UniProt P19643)
- Sequence (P19643 whole entry): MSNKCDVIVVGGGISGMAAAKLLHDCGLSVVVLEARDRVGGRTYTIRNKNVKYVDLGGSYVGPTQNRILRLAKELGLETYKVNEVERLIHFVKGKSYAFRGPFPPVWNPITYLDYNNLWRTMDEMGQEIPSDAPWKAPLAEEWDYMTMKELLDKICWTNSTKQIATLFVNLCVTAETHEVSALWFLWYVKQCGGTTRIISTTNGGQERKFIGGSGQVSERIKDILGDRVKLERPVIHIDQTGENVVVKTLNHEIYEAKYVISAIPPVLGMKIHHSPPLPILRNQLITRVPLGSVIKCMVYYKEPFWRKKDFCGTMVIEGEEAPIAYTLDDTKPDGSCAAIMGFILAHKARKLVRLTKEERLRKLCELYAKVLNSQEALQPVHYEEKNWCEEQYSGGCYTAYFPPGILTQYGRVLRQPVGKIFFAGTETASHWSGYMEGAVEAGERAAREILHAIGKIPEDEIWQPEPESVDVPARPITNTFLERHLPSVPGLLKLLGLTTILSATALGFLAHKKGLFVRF
- assay procedure: Inhibition of Sprague-Dawley rat MAO-B using Kynuramine as substrate assessed as formation of 4-hydroxyquinoline preincubated for 5 mins prior to substrate addition measured for 5 mins by spectrophotometry
- condition context: read-out: IC50

smiles repr | unit of measurement | IC50
NC(=O)COc1cc(=O)oc2cc(OCc3cccc(Cl)c3)ccc12 | nM | 3.1

----------
- tested on: Amine oxidase [flavin-containing] A (Rattus norvegicus)
- Sequence (P21396 whole entry): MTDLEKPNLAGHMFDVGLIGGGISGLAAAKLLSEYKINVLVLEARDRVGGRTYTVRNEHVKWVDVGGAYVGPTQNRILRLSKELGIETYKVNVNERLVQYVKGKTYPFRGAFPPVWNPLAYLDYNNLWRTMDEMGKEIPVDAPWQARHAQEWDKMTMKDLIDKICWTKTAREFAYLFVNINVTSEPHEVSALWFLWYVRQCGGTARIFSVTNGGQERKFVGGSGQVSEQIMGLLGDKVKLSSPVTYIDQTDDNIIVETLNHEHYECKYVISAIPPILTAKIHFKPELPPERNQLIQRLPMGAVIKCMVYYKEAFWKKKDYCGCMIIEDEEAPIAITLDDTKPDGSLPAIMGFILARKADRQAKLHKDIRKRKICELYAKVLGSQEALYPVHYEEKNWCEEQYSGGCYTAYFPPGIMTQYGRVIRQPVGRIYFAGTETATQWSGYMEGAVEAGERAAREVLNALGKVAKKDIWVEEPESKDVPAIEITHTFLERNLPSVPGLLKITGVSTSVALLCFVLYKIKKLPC
pIC50: −log10 of the molar value.

smiles repr | pIC50
O=c1cc(CO)c2ccc(OCc3cccc(Cl)c3)cc2o1 | 4.99
NC(=O)COc1cc(=O)oc2cc(OCc3cccc(Cl)c3)ccc12 | 4.62
NC(=O)COc1cc(=O)oc2cc(OCc3cccc(Br)c3)ccc12 | 5.05
CNc1cc(=O)oc2cc(OCc3cccc(Cl)c3)ccc12 | 5.39
